assay-text: Cytotoxicity against human SEM cells after 72 hrs by MTT assay
Format: functional, cell-based
IC50 values for the molecules below.
Report only the number, with the unit nM understood.

CCOC(=O)c1sc2ccccc2c1Nc1cc(OC)c(OC)c(OC)c1: 1900
COC(=O)c1sc2cc(OC)ccc2c1Nc1cc(OC)c(OC)c(OC)c1: 10.3
COc1ccc(/C=C\c2cc(OC)c(OC)c(OC)c2)cc1O: 5

Shift focus to the following entry.
Query :: I have this molecule here, `COC(=O)c1sc2ccc(C)cc2c1Nc1cc(OC)c(OC)c(OC)c1` , and I need its recorded IC50.
Result :: 185

---

Species on record: Bos taurus
assay-text: Displacement of [3H]colchicine from bovine brain tubulin at 5 uM after 20 mins by turbidimetric analysis
Values of inhibition greater than or equal to 90% map to 1.0; values below map to 0.0.

Known results for compounds:
CCOC(=O)c1sc2cc(OC)ccc2c1Nc1cc(OC)c(OC)c(OC)c1: 1.0
COC(=O)c1sc2c(OC)cccc2c1Nc1cc(OC)c(OC)c(OC)c1: 0.0
COC(=O)c1sc2cc(C)ccc2c1Nc1cc(OC)c(OC)c(OC)c1: 1.0
COC(=O)c1sc2nc(C)ccc2c1Nc1cc(OC)c(OC)c(OC)c1: 1.0

Query :: API: above_or_equal(metric=inhibition, cutoff=90%) for item `COC(=O)c1sc2cc(OC)ccc2c1Nc1cc(OC)c(OC)c(OC)c1`
Result :: 1.0
